FYI, the data here is from patent US20190119282A1.

# STUDY SYSTEM: PAR2 (HT-29 cells, SLIGKV activation) (Homo sapiens, UniProt P55085)
# Construct: host or cells: HT-29 cells
# METHOD DESCRIPTION: Ca FLIPR TETRA assay, ANTAGONIST mode, stimulation with 8 μM SLIGKV
# Type: cell-based
# ASSAY CONTEXT: HT-29 cells, stimulation with 8 μM SLIGKV
What pIC50 was measured for each of the following?
Numbers only, as −log10 of the molar value.

CC(C)c1cc(-c2ccc(F)cc2)nn2cc(C(=O)N3CCN(C(=O)C(O)Cc4ccccc4)[C@@H](C)C3)nc12 (some centres unmarked) [Compound I-113] ... 9.10
CC(C)c1cc(-c2ccc(F)cc2)nn2cc(C(=O)N3CCN(C)C(=O)C3(C)C)nc12 [Compound I-181] ... 8.00
CC(C)c1cc(-c2ccc(F)cc2)nn2cc(C(=O)N3CCN(C(=O)C(O)C(C)C)[C@@H](C)C3)nc12 (some centres unmarked) [Compound I-116] ... 7.92
CC(C)c1cc(-c2ccc(F)cc2)nn2cc(C(=O)N3CCN(C(=O)Cc4ccsc4)[C@@H](C)C3)nc12 [Compound I-125] ... 8.70
CCCCC(O)C(=O)N1CCN(C(=O)c2cn3nc(-c4ccc(F)cc4)cc(C(C)C)c3n2)C[C@@H]1C (some centres unmarked) [Compound I-107] ... 9.00
O=C(c1cn2nc(-c3ccc(F)cc3)cc(C(F)(F)F)c2n1)N1CCN(CCn2ccnc2)CC1 [Compound I-56] ... 4.64
CC(C)c1cc(-c2ccc(F)cc2)nn2cc(C(=O)N3CCN(C(=O)C(O)C(C)C)CC3(C)C)nc12 (centres unmarked) [Compound I-176] ... 8.22
Cc1cc(-c2ccc(F)cc2)nn2cc(C(=O)N3CCCC4(COC4)C3)nc12 [Compound I-61] ... 4.89
CC(C)c1cc(-c2ccc(F)cc2)nn2cc(C(=O)N3CCN(C(=O)C4(O)CCOCC4)CC3(C)C)nc12 [Compound I-27] ... 7.23
CCOC(=O)[C@@H]1CCCN(C(=O)c2cn3nc(-c4ccc(F)cc4)cc(C(F)(F)F)c3n2)[C@@H]1C [Compound I-75] ... 5.96

For each of the items listed, what is its pIC50?
1. CC(C(=O)NC1CC1)N1CCN(C(=O)c2cn3nc(-c4ccc(F)cc4)cc(C(F)(F)F)c3n2)CC1 (centres unmarked) [Compound I-55]
2. CC(C)c1cc(-c2ccc(F)cc2)nn2cc(C(=O)N3CCN(C(=O)[C@H](O)CC(C)(C)C)[C@@H](C)C3)nc12 [Compound I-97]
3. CC1(C)CN(C(=O)C2(O)CCOCC2)CCN1C(=O)c1cn2nc(-c3ccc(F)cc3)cc(C(F)(F)F)c2n1 [Compound I-38]
4. CC1(C)C(=O)NCCN1C(=O)c1cn2nc(-c3ccc(F)cc3)cc(C3CCOCC3)c2n1 [Compound I-29]

6.02
9.15
6.41
6.62

----------
What pIC50 was measured for each of the following?
# STUDY SYSTEM: PAR2 (HT-29 cells, SLIGKV activation) (Homo sapiens, UniProt P55085)
# Construct: host or cells: HT-29 cells
# METHOD DESCRIPTION: Ca FLIPR TETRA assay, ANTAGONIST mode, stimulation with 8 μM SLIGKV
# Format: cell-based
# ASSAY CONTEXT: HT-29 cells, antagonist mode, stimulation with 8 μM SLIGKV
Answers are plain numbers, as −log10 of the molar value.

CC(C)(C)c1cc(C2CCC(F)(F)CC2)nn2cc(C(=O)N3CCN(C(=O)[C@H]4CC[C@@H](C(=O)O)CC4)CC3(C)C)nc12 ... 8.33
CC(C)(C)c1cc(-c2ccc(F)c(Cl)c2)nn2cc(C(=O)N3CCN(C(=O)[C@H]4CC[C@H](C(=O)O)CC4)CC3(C)C)nc12 ... 8.38

What value of measured pIC50 is listed for CC(C)c1cc(-c2ccc(Cl)cc2)nn2cc(C(=O)N3CCN(C(=O)[C@H]4C[C@@](C)(O)C4)CC3(C)C)nc12 ? 9.00

----------
I'd appreciate it if you could supply log10(IC50) values for the items below.
# STUDY SYSTEM: PAR2 (HT-29 cells, trypsin activation) (Homo sapiens)
# Construct: host or cells: HT-29 cells
# METHOD DESCRIPTION: Ca FLIPR TETRA assay, ANTAGONIST mode, stimulation with 3.1 U/mL trypsin
# Assay type: cell-based
# ASSAY CONTEXT: HT-29 cells, antagonist mode, stimulation with 3.1 U/mL trypsin
Reminder: these figures are log10 of reported IC50, in nM before transformation.

The cases that follow already have their log10(IC50) on record.
CC(C)(C)c1cc(-c2ccc(Cl)c(F)c2)nn2cc(C(=O)N3CCN(C(=O)c4ncccn4)CC3(C)C)nc12 [Compound I-456] ... -0.15
Cc1cc(-c2cc(C(C)C)c3nc(C(=O)N4CCN(C(=O)C(C)(C)O)CC4(C)C)cn3n2)ccc1F [Compound I-223] ... 1.43

I have 4 compounds here; please give me log10(IC50) for each one.
1. Cc1n[nH]c(C(=O)N2CCN(C(=O)c3cn4nc(-c5ccc(C)c(F)c5)cc(C(C)C)c4n3)C(C)(C)C2)n1 [Compound I-339]
2. CC(C)c1cc(-c2ccc(Cl)cc2)nn2cc(C(=O)N3CCN(C(=O)[C@H]4C[C@@H](O)C4)CC3(C)C)nc12 [Compound I-543]
3. CC(C)c1cc(-c2ccc(F)cc2)nn2cc(C(=O)N3CCN(C(=O)[C@H](O)CC(C)(C)C)C[C@@H]3C)nc12 [Compound I-197]
4. Cc1nc(C(=O)N2CCN(C(=O)c3cn4nc(-c5ccc(F)cc5)cc(C(C)(C)C)c4n3)C(C)(C)C2)n(COP(=O)(O)O)n1 [Compound I-481]

1: 0.28; 2: 0.68; 3: 2.63; 4: 1.65

----------
# STUDY SYSTEM: PAR2 (HT-29 cells, trypsin activation) (Homo sapiens)
# Construct: host or cells: HT-29 cells
# Sequence (P55085 26-397): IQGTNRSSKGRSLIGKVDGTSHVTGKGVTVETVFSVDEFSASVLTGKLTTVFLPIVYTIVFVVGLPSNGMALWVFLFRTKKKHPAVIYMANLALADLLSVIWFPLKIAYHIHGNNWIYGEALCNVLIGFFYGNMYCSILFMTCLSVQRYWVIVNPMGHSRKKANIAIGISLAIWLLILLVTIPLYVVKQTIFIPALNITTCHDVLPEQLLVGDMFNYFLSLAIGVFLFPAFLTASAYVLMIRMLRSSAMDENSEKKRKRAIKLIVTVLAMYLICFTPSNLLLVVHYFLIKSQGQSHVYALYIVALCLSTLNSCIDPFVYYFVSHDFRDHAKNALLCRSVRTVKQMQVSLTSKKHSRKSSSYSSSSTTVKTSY
# METHOD DESCRIPTION: Ca FLIPR TETRA assay, ANTAGONIST mode, stimulation with 3.1 U/mL trypsin
# Format: cell-based
# ASSAY CONTEXT: HT-29 cells, antagonist mode, stimulation with 3.1 U/mL trypsin
ASSAY READOUT: IC50

Please review the following examples before continuing.
CC(C)c1cc(-c2ccc(F)cc2)nn2cc(C(=O)N3CCN(C(=O)c4cccnc4)CC3(C)C)nc12 ... 19 nM
CC(C)c1cc(-c2ccc(Cl)cc2)nn2cc(C(=O)N3CCN(C(=O)[C@H]4C[C@](O)(C(F)(F)F)C4)CC3(C)C)nc12 ... 0.3 nM

Missing value: IC50, PAR2 (HT-29 cells, trypsin activation) (Homo sapiens), entry CC(C)(C)c1cc(-c2ccc(Cl)cc2)nn2cc(C(=O)N3CCN(C(=O)[C@H]4C[C@@](C)(O)C4)CC3(C)C)nc12 . Fill in? 0.2 nM

----------
# STUDY SYSTEM: PAR2 (HT-29 cells, SLIGKV activation) (Homo sapiens)
# Construct: host or cells: HT-29 cells
# Sequence (P55085 26-397): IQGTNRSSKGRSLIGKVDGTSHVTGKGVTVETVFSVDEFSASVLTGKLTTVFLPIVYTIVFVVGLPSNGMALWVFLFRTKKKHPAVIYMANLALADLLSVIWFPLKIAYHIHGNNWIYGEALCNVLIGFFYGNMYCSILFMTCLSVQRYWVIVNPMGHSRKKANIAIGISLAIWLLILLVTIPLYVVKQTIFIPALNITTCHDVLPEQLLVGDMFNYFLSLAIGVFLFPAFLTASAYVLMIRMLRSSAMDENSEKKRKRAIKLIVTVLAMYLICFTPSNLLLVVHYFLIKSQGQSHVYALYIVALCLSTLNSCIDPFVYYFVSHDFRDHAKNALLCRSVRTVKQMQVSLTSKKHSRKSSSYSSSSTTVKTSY
# METHOD DESCRIPTION: Ca FLIPR TETRA assay, ANTAGONIST mode, stimulation with 8 μM SLIGKV
# Type: cell-based
# ASSAY CONTEXT: HT-29 cells, antagonist mode, stimulation with 8 μM SLIGKV
ASSAY READOUT: log10 IC50 (log10 of the value in µM)
Lab note - IC50 converted to log10 from values in µM.

Examples with answers:
Cc1ccc(-c2cc(C(C)(C)C)c3nc(C(=O)N4CCN(C(=O)c5ccn[nH]5)CC4(C)C)cn3n2)cc1 ... -3.05
CC(C)c1cc(-c2ccc(Cl)cc2)nn2cc(C(=O)N3CCNCC3(C)C)nc12 ... -0.20
CC(C)(C)c1cc(-c2ccc(F)cc2)nn2cc(C(=O)N3CCN(C(=O)[C@H]4CC[C@H](C(=O)O)CC4)CC3(C)C)nc12 ... -1.91

# map each compound to its log10 IC50
1. Cc1cc(F)ccc1-c1cc(C(C)C)c2nc(C(=O)N3CCNC(=O)C3(C)C)cn2n1
2. Cc1ccc(-c2cc(C(C)(C)C)c3nc(C(=O)N4CCN(C(=O)c5cc(C)n[nH]5)CC4(C)C)cn3n2)cc1
3. CC(C)c1cc(C(C)C)c2nc(C(=O)N3CCN(C(=O)C4CCC(C(=O)O)CC4)CC3(C)C)cn2n1 (centres unmarked)
4. CC(C)c1cc(-c2ccc(F)cc2)nn2cc(C(=O)N3CCN(C(=O)c4cccnc4)CC3(C)C)nc12
5. CC(C)(C)c1cc(C2CCC(F)(F)CC2)nn2cc(C(=O)N3CCN(C(=O)[C@H]4C[C@@H](C(=O)O)C4)CC3(C)C)nc12

-0.10
-3.22
-0.01
-1.76
-1.40
